Value source: the NIST ThermoML archive (doi:10.1021/je300993n)

Assay: refractive index (Na D-line) (dimensionless); wn = mass fraction of the nth substance listed
Conditions: 293.15 K; 101 kPa; Liquid; Standard Abbe refractometry; w1 = 0.3
parameter-measured: refractive index

>>> reported("CCCCCCCC[N+](CC)(CC)CC.F[P-](F)(F)(F)(F)F [N,N,N-triethyl-N-octylammonium hexafluorophosphate] + O=S(=O)(O)C(F)(F)F")
1.3681
>>> reported("CC[N+](CC)(CC)CC.F[P-](F)(F)(F)(F)F [tetraethylammonium hexafluorophosphate] + O=S(=O)(O)C(F)(F)F")
1.3602
>>> reported("CCCCCC[N+](CC)(CC)CC.F[P-](F)(F)(F)(F)F [N,N,N-triethyl-N-hexylammonium hexafluorophosphate] + O=S(=O)(O)C(F)(F)F")
1.3667
>>> reported("CCCC[N+](CC)(CC)CC.F[P-](F)(F)(F)(F)F [N,N,N-triethyl-N-butylammonium hexafluorophosphate] + O=S(=O)(O)C(F)(F)F")
1.3632
>>> reported("CCCC[N+](CC)(CC)CC.F[B-](F)(F)F [N,N,N-triethyl-N-butylammonium tetrafluoroborate] + O=S(=O)(O)C(F)(F)F")
1.3636
>>> reported("CCCCCC[N+](CC)(CC)CC.F[B-](F)(F)F [N,N,N-triethyl-N-hexylammonium tetrafluoroborate] + O=S(=O)(O)C(F)(F)F")
1.3654
>>> reported("CCCCCC[N+](CC)(CC)CC.[F][Sb-]([F])([F])([F])([F])[F] [N,N,N-triethyl-N-hexylammonium hexafluoroantimonate] + O=S(=O)(O)C(F)(F)F")
1.3563
>>> reported("CCCCCCCC[N+](CC)(CC)CC.F[B-](F)(F)F [N,N,N-triethyl-N-octylammonium tetrafluoroborate] + O=S(=O)(O)C(F)(F)F")
1.3672
>>> reported("CC[N+](CC)(CC)CC.[F][Sb-]([F])([F])([F])([F])[F] [tetraethylammonium hexafluoroantimonate] + O=S(=O)(O)C(F)(F)F")
1.3498
>>> reported("CC[N+](CC)(CC)CC.F[B-](F)(F)F [tetraethylammonium tetrafluoroborate] + O=S(=O)(O)C(F)(F)F")
1.3601

* * *

Assay: refractive index (Na D-line) (dimensionless); wn = mass fraction of the nth substance listed
Conditions: 293.15 K; 101 kPa; Liquid; Standard Abbe refractometry; w1 = 0.6
parameter-measured: refractive index

>>> reported("CCCC[N+](CC)(CC)CC.F[B-](F)(F)F [N,N,N-triethyl-N-butylammonium tetrafluoroborate] + O=S(=O)(O)C(F)(F)F")
1.3857
>>> reported("CCCC[N+](CC)(CC)CC.F[P-](F)(F)(F)(F)F [N,N,N-triethyl-N-butylammonium hexafluorophosphate] + O=S(=O)(O)C(F)(F)F")
1.3782
>>> reported("CCCCCC[N+](CC)(CC)CC.[F][Sb-]([F])([F])([F])([F])[F] [N,N,N-triethyl-N-hexylammonium hexafluoroantimonate] + O=S(=O)(O)C(F)(F)F")
1.3809
>>> reported("CC[N+](CC)(CC)CC.[F][Sb-]([F])([F])([F])([F])[F] [tetraethylammonium hexafluoroantimonate] + O=S(=O)(O)C(F)(F)F")
1.3678

* * *

Test: refractive index (Na D-line) (dimensionless); wn = mass fraction of the nth substance listed
Conditions: 293.15 K; 101 kPa; Liquid; Standard Abbe refractometry; w1 = 0.5
parameter-measured: refractive index

>>> reported("CCCCCC[N+](CC)(CC)CC.F[B-](F)(F)F [N,N,N-triethyl-N-hexylammonium tetrafluoroborate] + O=S(=O)(O)C(F)(F)F")
1.3782
>>> reported("CCCC[N+](CC)(CC)CC.F[P-](F)(F)(F)(F)F [N,N,N-triethyl-N-butylammonium hexafluorophosphate] + O=S(=O)(O)C(F)(F)F")
1.3786
>>> reported("CCCCCC[N+](CC)(CC)CC.[F][Sb-]([F])([F])([F])([F])[F] [N,N,N-triethyl-N-hexylammonium hexafluoroantimonate] + O=S(=O)(O)C(F)(F)F")
1.3722
>>> reported("CCCC[N+](CC)(CC)CC.F[B-](F)(F)F [N,N,N-triethyl-N-butylammonium tetrafluoroborate] + O=S(=O)(O)C(F)(F)F")
1.3771
>>> reported("CCCCCCCC[N+](CC)(CC)CC.F[B-](F)(F)F [N,N,N-triethyl-N-octylammonium tetrafluoroborate] + O=S(=O)(O)C(F)(F)F")
1.3811
>>> reported("CC[N+](CC)(CC)CC.[F][Sb-]([F])([F])([F])([F])[F] [tetraethylammonium hexafluoroantimonate] + O=S(=O)(O)C(F)(F)F")
1.3641
>>> reported("CC[N+](CC)(CC)CC.F[B-](F)(F)F [tetraethylammonium tetrafluoroborate] + O=S(=O)(O)C(F)(F)F")
1.3732
>>> reported("CCCCCCCC[N+](CC)(CC)CC.F[P-](F)(F)(F)(F)F [N,N,N-triethyl-N-octylammonium hexafluorophosphate] + O=S(=O)(O)C(F)(F)F")
1.3875
